Measured metabolised at 0.5 h of individual entries
assay overview: Metabolic stability in rat liver microsomes assessed as compound metabolized after 30 mins by LC-MS/MS analysis
Type: ADME
measurement setup: read-out: Drug metabolism
readout kind: metabolised at 0.5 h (%)

CC(C)CN1CCC(NC(=O)c2ccc(OC3CCN(C(C)C)CC3)cc2)C1 (stereo not drawn) : 8
CC(C)N1CCC(Oc2ccc(C(=O)NC3CCN(C(C)C)C3)cc2)CC1 (stereo not drawn) : 4
O=C1c2ccc(OC3CCN(C4CCC4)CC3)cc2CCN1C1CCN(C2CCC2)CC1 : 6

---

tested target: Histamine H3 receptor (Homo sapiens, UniProt Q9Y5N1)
Sequence (Q9Y5N1 whole entry): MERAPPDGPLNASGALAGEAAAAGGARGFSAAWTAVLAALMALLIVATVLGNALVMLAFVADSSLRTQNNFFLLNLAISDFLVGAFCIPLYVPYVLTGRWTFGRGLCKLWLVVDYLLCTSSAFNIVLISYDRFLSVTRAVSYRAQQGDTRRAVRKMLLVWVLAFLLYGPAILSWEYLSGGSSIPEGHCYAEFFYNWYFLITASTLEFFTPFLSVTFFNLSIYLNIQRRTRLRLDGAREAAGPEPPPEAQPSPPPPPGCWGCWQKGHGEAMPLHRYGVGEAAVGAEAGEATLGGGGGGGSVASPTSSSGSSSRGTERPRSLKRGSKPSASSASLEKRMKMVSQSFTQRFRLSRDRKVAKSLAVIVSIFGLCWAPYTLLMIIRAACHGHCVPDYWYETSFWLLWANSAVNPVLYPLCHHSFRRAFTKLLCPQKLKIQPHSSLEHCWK
assay overview: Displacement of [3H]R-alpha-methyl histamine from recombinant human H3 receptor
pKi: −log10 of the molar value.
readout kind: pKi

O=C(NC1CCN(C2CCC2)CC1)c1ccc(OC2CCN(C3CCC3)CC2)cc1Cl : 8.17
CC(C)N1CCC(Oc2ccc(C(=O)NC3CCN(C4CCC4)C3)cc2F)CC1 (racemic) : 8.14
CC(C)N1CCC(NC(=O)c2ccc(OC3CCN(C4CCC4)CC3)cc2)CC1 : 8.80
CC(C)N1CCC(NC(=O)c2ccc(OC3CCN(C4CCC4)CC3)cc2)C1 (racemic) : 7.57
Cc1cc(C(=O)NC2CCN(C3CCC3)C2)ccc1OC1CCN(C(C)C)CC1 (racemic) : 6.42
CC(C)CN1CCC(NC(=O)c2ccc(OC3CCN(C(C)C)CC3)cc2)C1 (racemic) : 9.00
CC(C)N1CCC(Oc2ccc3c(c2)CCN(C2CCN(C4CCC4)C2)C3=O)CC1 (racemic) : 8.92
CC(C)N1CCC(Oc2ccc3c(c2)CCN(C2CCN(C(C)C)C2)C3=O)CC1 (racemic) : 8.68
CC(C)N1CCC(Oc2ccc(C(=O)NC3CCN(C4CCC4)CC3)c(F)c2)CC1 : 7.98
O=C1c2ccc(OC3CCN(C4CCC4)CC3)cc2CCN1C1CCN(C2CCC2)CC1 : 9.10
CC(C)N1CCC(NC(=O)c2ccc(OC3CCN(C4CCC4)CC3)cc2Cl)CC1 : 8.15
CC(C)N1CCC(NC(=O)c2ccc(OC3CCOCC3)cc2)C1 (racemic) : 6.99
CC(C)N1CCC(Oc2ccc(C(=O)NC3CCN(C4CCC4)C3)cc2)CC1 (racemic) : 8.60
